- Measurement protocol: qHTS assay to identify small molecule antagonists of the androgen receptor (AR) signaling pathway - cell viability counter screen (AID 743033; also: nearly all actives have a fitted effect of over 45% in size)
- Condition description: AR-bla HEK293 viability, CellTiter-Glo luminescence, 16 h; series mostly up to 58.5 µM
Results filed as inconclusive are left out. Active and inactive are the calls of the source. Calls follow the shape of the dose curve; as a rule, active = well fitted cell-killing curve with a large enough effect in the repeat runs; inconclusive = weak or mixed curves; inactive = no such curve, though single readings can be large or run the other way.
Value kind: activity change, negative = cytotoxicity

CS(=O)(=O)c1ccc(C(=O)C2C(=O)CCCC2=O)c(Cl)c1COCC(F)(F)F = inactive
COC(=O)c1ccc(CBr)cc1 = inactive
CC(Cc1ccccc1)NCCn1cnc2c1c(=O)n(C)c(=O)n2C (stereo not given) = inactive
ClC(Cl)(Cl)Cl = inactive
COc1cc(CC(C)N)cc(OC)c1OC (stereo not given) = inactive
CC1NCCOC1c1ccccc1 (stereo not given) = inactive
CCN(CC)CCOC(=O)C(O)(c1ccccc1)c1ccccc1 = inactive
CCC1(c2ccccc2)C(=O)N(COC)C(=O)N(COC)C1=O = inactive
c1ccc2c(c1)CCNC2 = inactive
Cc1ccc2cc(C)ccc2c1 = inactive

Entry CCCCS(=O)(=O)Cl has what activity change, negative = cytotoxicity?
inactive

# get_value(readout='activity change, negative = cytotoxicity', item= CC1=C2[C@H]3OC(=O)[C@@H](C)[C@@H]3CC[C@@]2(C)C=CC1=O )
inactive

Quick one: activity change, negative = cytotoxicity for CCC(=O)c1ccc(Cl)cc1 ?
inactive

Look up activity change, negative = cytotoxicity for this compound: Oc1ccc2c3c1O[C@H]1[C@@H](O)C=C[C@H]4[C@@H](C2)NCC[C@@]341
inactive

// returns reported activity change, negative = cytotoxicity for input COc1ccccc1OC
inactive

# activity change, negative = cytotoxicity lookup, item N=C(N)[Se]
inactive

Find the recorded activity change, negative = cytotoxicity belonging to O=C1CCCCC1Cl (stereo not given) and report it.
inactive

State the recorded activity change, negative = cytotoxicity for this entry: CN=CNc1ccc(C)cc1C
inactive

May I ask what activity change, negative = cytotoxicity has been recorded for COc1ccc(C=O)cc1O ?
inactive

For the compound COP(=O)(O)OC , what activity change, negative = cytotoxicity is on record?
inactive
